Origin of the recorded values: PubChem BioAssay AID2060501

# System: 282377-053-R-J1-PDC complex spheroids, viability;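 also: spheroids exposed to compounds for 7 days before readout; percent of vehicle DMSO control viability with 100% = untreated-like growth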
# TEST DESCRIPTION: Anticancer human tumor 282377-053-R-J1-PDC patient-derived colon adenocarcinoma cell line growth inhibition [GQUAD]
# MEASUREMENT CONTEXT: second compound 3.16 µM; first compound 0.000999 µM; hits give low values
A collection of compounds and their measured viability, T/C
# value in %; strip the unit string

Record excerpt, results attached:
1) CCc1c2c(nc3ccc(O)cc13)-c1cc3c(c(=O)n1C2)COC(=O)[C@]3(O)CC + Cc1[nH]c2ccc(F)cc2c1-c1nc2c3cccnc3c3ncccc3c2[nH]1 | 71.5
2) CCc1c2c(nc3ccc(O)cc13)-c1cc3c(c(=O)n1C2)COC(=O)[C@]3(O)CC + Cc1cnc(CNC(=O)c2c(=O)c3ccc(N4CCCN(C)CC4)nc3n3c2sc2ccccc23)cn1 | 46.6
3) CCc1c2c(nc3ccc(O)cc13)-c1cc3c(c(=O)n1C2)COC(=O)[C@]3(O)CC + CN(C)c1ccc(Nc2c3ccc(NC(=O)CCN4CCCC4)cc3nc3cc(NC(=O)CCN4CCCC4)ccc23)cc1 | 103
4) Cn1ncnc1[C@H]1c2n[nH]c(=O)c3cc(F)cc(c23)N[C@@H]1c1ccc(F)cc1 + Cc1[nH]c2ccc(F)cc2c1-c1nc2c3cccnc3c3ncccc3c2[nH]1 | 67.7

// sample Cc1[nH]c2ccccc2c1CCNCc1ccc(/C=C/C(=O)NO)cc1 + Cc1cnc(CNC(=O)c2c(=O)c3ccc(N4CCCN(C)CC4)nc3n3c2sc2ccccc23)cn1 , its viability, T/C was 51.1

So for CC[C@@]1(O)C(=O)OCc2c1cc1n(c2=O)Cc2cc3c(CN(C)C)c(O)ccc3nc2-1 + Cc1cnc(CNC(=O)c2c(=O)c3ccc(N4CCCN(C)CC4)nc3n3c2sc2ccccc23)cn1 , the logged viability, T/C turned out to be 54.1

Just so you know, measured viability, T/C for Cc1[nH]c2ccccc2c1CCNCc1ccc(/C=C/C(=O)NO)cc1 + Cc1[nH]c2ccc(F)cc2c1-c1nc2c3cccnc3c3ncccc3c2[nH]1 came out at 70.8

Quick note, viability, T/C for Cc1[nH]c2ccccc2c1CCNCc1ccc(/C=C/C(=O)NO)cc1 + CN(C)c1ccc(Nc2c3ccc(NC(=O)CCN4CCCC4)cc3nc3cc(NC(=O)CCN4CCCC4)ccc23)cc1 landed at 92.9

# viability, T/C (compound: CC[C@@]1(O)C(=O)OCc2c1cc1n(c2=O)Cc2cc3c(CN(C)C)c(O)ccc3nc2-1 + CN(C)c1ccc(Nc2c3ccc(NC(=O)CCN4CCCC4)cc3nc3cc(NC(=O)CCN4CCCC4)ccc23)cc1 ) is 90.6
